tgt: MMP-14 (Homo sapiens)
Construct: The catalytic domain enzyme was expressed in E. coli inclusion bodies, solubilized in urea; made in house
method notes: In vitro MMP inhibition, Ki determination (fluorogenic substrate II)
Format: biochemical
particulars: value outside parentheses; read-out: MMP-14 Ki
pKi values by entry
Hey, just a heads up that pKi is the negative log base 10 of the concentration in molar.

Worked cases, answers included:
COC(=O)c1ccc(N2CCN(S(=O)(=O)C3(C(=O)NO)CCOCC3)CC2)cc1 : 5.94
CCCCCc1ccc(N2CCN(S(=O)(=O)C3(C(=O)NO)CCN(C4CC4)CC3)CC2)cc1 : 5.36
O=C(NO)C1(S(=O)(=O)N2CCN(c3ncc(-c4ccc(F)cc4)s3)CC2)CCOCC1 : 7.42

Record `CCCCOc1ccc(N2CCN(S(=O)(=O)C3(C(=O)NO)CCN(c4ccc(Cl)nn4)CC3)CC2)cc1` / MMP-14 (Homo sapiens), pKi recorded as 5.79

Record `O=C(NO)C1(S(=O)(=O)N2CCN(c3ccc(CCC(F)(F)C(F)(F)F)cc3)CC2)CCN(C2CC2)CC1` / MMP-14 (Homo sapiens), pKi recorded as 5.03

###

tgt: MMP-9 (Homo sapiens)
Construct: made in house; host or cells: MMP-9-transfected HT1080 cells (spent media)
Sequence (P14780 107-707 limits assumed): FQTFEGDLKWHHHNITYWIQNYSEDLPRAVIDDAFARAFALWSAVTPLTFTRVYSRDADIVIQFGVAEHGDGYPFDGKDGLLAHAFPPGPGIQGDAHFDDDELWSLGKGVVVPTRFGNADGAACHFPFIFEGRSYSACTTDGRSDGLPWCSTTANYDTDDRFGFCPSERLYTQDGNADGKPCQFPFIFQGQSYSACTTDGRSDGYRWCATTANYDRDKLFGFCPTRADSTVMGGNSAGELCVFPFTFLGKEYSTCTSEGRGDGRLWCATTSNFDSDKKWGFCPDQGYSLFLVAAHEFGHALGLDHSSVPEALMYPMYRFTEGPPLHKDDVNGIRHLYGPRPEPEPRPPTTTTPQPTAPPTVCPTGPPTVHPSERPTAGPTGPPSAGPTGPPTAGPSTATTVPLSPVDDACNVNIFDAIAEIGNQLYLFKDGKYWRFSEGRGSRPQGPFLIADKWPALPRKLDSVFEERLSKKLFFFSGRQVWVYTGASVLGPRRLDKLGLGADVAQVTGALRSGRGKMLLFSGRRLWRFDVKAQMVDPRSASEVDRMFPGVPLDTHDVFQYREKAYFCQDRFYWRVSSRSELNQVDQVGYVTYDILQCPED
method notes: In vitro MMP inhibition, Ki determination (fluorogenic substrate II)
Assay type: biochemical
particulars: human recombinant enzyme; 4 μM substrate II; room temperature, 1 hr
Where a name gives a salt, the structure may show the parent alone.
Ki vs 1 nM: less than gives condition met; not less than gives condition not met.

Lookup: Say whether its Ki is strictly beneath 1 nM. Entry: CCCCc1ccc(N2CCN(S(=O)(=O)C3(C(=O)NO)CCN(CCOC)CC3)CC2)cc1 [Example 5, Dihydrochloride]
Found: condition met

###

tgt: MMP-2 (Homo sapiens)
Construct: made in house; host or cells: MMP-2-transfected p2AHT2 cells
Sequence (P08253 110-660): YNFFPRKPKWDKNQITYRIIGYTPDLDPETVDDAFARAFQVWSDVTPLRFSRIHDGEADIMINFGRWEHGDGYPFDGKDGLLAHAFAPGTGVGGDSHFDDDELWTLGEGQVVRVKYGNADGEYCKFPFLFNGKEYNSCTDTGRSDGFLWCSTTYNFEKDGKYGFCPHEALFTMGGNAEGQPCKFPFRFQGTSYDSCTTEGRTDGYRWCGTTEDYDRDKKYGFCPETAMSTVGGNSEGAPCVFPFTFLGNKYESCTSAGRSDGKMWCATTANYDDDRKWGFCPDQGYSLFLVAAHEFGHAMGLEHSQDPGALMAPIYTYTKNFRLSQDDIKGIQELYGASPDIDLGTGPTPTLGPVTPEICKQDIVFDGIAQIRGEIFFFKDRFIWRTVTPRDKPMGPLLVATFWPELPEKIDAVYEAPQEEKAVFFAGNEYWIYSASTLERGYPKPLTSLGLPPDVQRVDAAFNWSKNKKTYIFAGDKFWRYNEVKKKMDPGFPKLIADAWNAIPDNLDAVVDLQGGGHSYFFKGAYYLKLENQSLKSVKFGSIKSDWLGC
method notes: In vitro MMP inhibition, IC50 determination (fluorogenic substrate I)
Type: biochemical
particulars: value in parentheses; read-out: MMP-2 (IC-50)
IC50 values by entry

Worked cases, answers included:
CCCCOc1ccc(N2CCN(S(=O)(=O)C3(C(=O)NO)CCN(c4ccc(C)cc4)CC3)CC2)cc1F [Example 296] : < 0.1 nM
CCCCOc1ccc(N2CCN(S(=O)(=O)C3(C(=O)NO)CCN(C4CC4)CC3)CC2)cc1 [Example 301] : 0.2 nM
Cc1cc(N2CCN(S(=O)(=O)C3(C(=O)NO)CCOCC3)CC2)ccc1OC(C)C [Example 299] : 12.5 nM
CCCCOc1ccc(N2CCN(S(=O)(=O)C3(C(=O)NO)CCN(c4ccc(C)cc4)CC3)CC2)cc1 [Example 295] : < 0.1 nM
COCCOc1ccc(N2CCN(S(=O)(=O)C3(C(=O)NO)CCN(C4CC4)CC3)CC2)cc1F [Example 297] : 0.4 nM
CS(=O)(=O)c1ccc(N2CCN(S(=O)(=O)C3(C(=O)NO)CCOCC3)CC2)cc1 [Example 300] : 27.3 nM
CCCCOc1ccc(N2CCN(S(=O)(=O)C3(C(=O)NO)CCN(C(=O)CN)CC3)CC2)cc1 [Example 292] : 0.2 nM
CCCCOc1ccc(N2CCN(S(=O)(=O)C3(C(=O)NO)CCN(Cc4cccnc4)CC3)CC2)cc1F [Example 293] : 0.3 nM

Value of IC50 reported for the molecule CCCCOc1ccc(N2CCN(S(=O)(=O)C3(C(=O)NO)CCN(C(=O)CCC)CC3)CC2)cc1 [Example 290] is 59.5 nM

Value of IC50 reported for the molecule CCCCOc1ccc(N2CCN(S(=O)(=O)C3(C(=O)NO)CCN(CC4CC4)CC3)CC2)cc1 [Example 298] is 1.1 nM

Value of IC50 reported for the molecule C#CCN1CCC(C(=O)NO)(S(=O)(=O)N2CCN(c3ccc(OCCCC)cc3)CC2)CC1 [Example 303] is 0.1 nM
